Cited source for all entries: patent US8802597B2

System: redroot pigweed (Amaranthus retroflexus)
test: Test A pre/postemergence
Type: in vivo
experimental-context: Preemergence, 125 g ai/ha; 0 to 100 scale where 0 is no effect and 100 is complete control; approximately ten days
Overview of reported Plant response rating, Pigweed across a group of molecules:

These solved cases illustrate the format of a correct answer.
| molecule | system-name | readout | observed-value |
| --- | --- | --- | --- |
| CNc1nc(-c2ccc(Cl)cc2)nc(C(=O)OC)c1Cl [Compound 111] | redroot pigweed (Amaranthus retroflexus) | Plant response rating, Pigweed | 0 |
| COC(=O)c1nc(-c2ccc(C)cc2)nc(N)c1Br [Compound 82] | redroot pigweed (Amaranthus retroflexus) | Plant response rating, Pigweed | 0 |
| Nc1nc(-c2ccc(Cl)cc2)nc(C(=O)O)c1Br [Compound 88] | redroot pigweed (Amaranthus retroflexus) | Plant response rating, Pigweed | 80 |
| CCOC(=O)Cc1nc(-c2ccc(Cl)cc2)nc(N)c1Cl [Compound 120] | redroot pigweed (Amaranthus retroflexus) | Plant response rating, Pigweed | 0 |
| CCOC(=O)c1nc(-c2cccc(C(F)(F)F)c2)nc(N)c1Cl [Compound 107] | redroot pigweed (Amaranthus retroflexus) | Plant response rating, Pigweed | 0 |
| CCOC(=O)c1nc(-c2ccc(OC)cc2)nc(N)c1Cl [Compound 98] | redroot pigweed (Amaranthus retroflexus) | Plant response rating, Pigweed | 0 |
| Nc1nc(C2CC2)nc(C(=O)OCCCO)c1Cl [Compound 143] | redroot pigweed (Amaranthus retroflexus) | Plant response rating, Pigweed | 65 |
| COC(=O)COC(=O)c1nc(C2CC2)nc(N)c1Cl [Compound 148] | redroot pigweed (Amaranthus retroflexus) | Plant response rating, Pigweed | 80 |
| COC(=O)c1nc(-c2ccc([S+](C)[O-])cc2)nc(N)c1Cl (stereo not drawn) [Compound 123] | redroot pigweed (Amaranthus retroflexus) | Plant response rating, Pigweed | 0 |
| Nc1nc(C2CC2)nc(C(=O)Oc2ccc(Cl)cc2)c1Cl [Compound 145] | redroot pigweed (Amaranthus retroflexus) | Plant response rating, Pigweed | 65 |

Switching to the query record.
Exercise: Give Plant response rating, Pigweed for CCOC(=O)COc1nc(C2CC2)nc(N)c1Cl [Compound 115]
Key: 30

====

Test system: morningglory (Ipomoea coccinea)
test: Test B pre/postemergence
Format: in vivo
experimental-context: Ipomoea, post-emergence, Postemergence, 125 g ai/ha; scale 0 to 100 (0 no effect, 100 complete control); read-out: Morningglory plant response rating
Rule: pest or weed control at 125 g/ha of 70% or more gives fulfilled; anything lower gives not fulfilled.

Known results for compounds:
| compound | cat |
| --- | --- |
| COC(=O)c1nc(C(C)C)nc(N)c1Br [Compound 3] | fulfilled |
| COC(=O)c1nc(C2CC2)nc(N)c1I [Compound 7] | fulfilled |
| COC(=O)c1nc(C2CC2)nc(N)c1Cl [Compound 9] | fulfilled |

Exercise: Reported pest or weed control at 125 g/ha at or above 70%? COC(=O)c1nc(-c2ccccc2)nc(N)c1Br [Compound 23]
Key: not fulfilled

Exercise: Reported pest or weed control at 125 g/ha at or above 70%? Nc1nc(C2CC2)nc(CO)c1Br [Compound 21]
Key: not fulfilled

Exercise: Reported pest or weed control at 125 g/ha at or above 70%? CCOC(=O)c1nc(-c2ccccc2)nc(N)c1Br [Compound 18]
Key: not fulfilled
